- system-under-test: ANGPTL2
- measurement-conditions: ASO, 25 µM
After the bases stand the sugars from the 5' end (letter, count) and the backbone: PS all phosphorothioate, else s phosphorothioate and o phosphodiester by linkage. Methylation of C is not given here. l = locked nucleic acid (LNA); d = 2'-deoxy (DNA)
endpoint-name: target mRNA inhibition (%)
Please reply with the bare figure in % and do not write the unit itself.

### Prompt Return reported target mRNA inhibition; argument: GTTCTCCAGGGAAGTGTA (sugars l1 d15 l2, PS)
### Response 57.7

### Prompt So what does the record say about target mRNA inhibition for TAGCAGATGGGGCACAA (sugars l1 d12 l4, PS) ?
### Response 12.4

### Prompt Which target mRNA inhibition reading was recorded for the sequence ATGATGCGGTTGTAGG (sugars l2 d11 l3, PS) ?
### Response 81.1

### Prompt Requested field: target mRNA inhibition. Item: ACCATTTTGAGATTCCCC (sugars l1 d15 l2, PS)
### Response 18.9

### Prompt # get_value(readout='target mRNA inhibition', item= CCTGGTAAAATCTTACA (sugars l3 d11 l3, PS) )
### Response 48.2

### Prompt target mRNA inhibition lookup needed for GTTTCTGACAAAGCCCG (sugars l1 d13 l3, PS) , thanks.
### Response 84.3
